test.system: T1, human OX40_Fc (R&D Systems) (human, UniProt P43489 29-216)
T1 construct: Bought
T1 sequence (P43489 29-216): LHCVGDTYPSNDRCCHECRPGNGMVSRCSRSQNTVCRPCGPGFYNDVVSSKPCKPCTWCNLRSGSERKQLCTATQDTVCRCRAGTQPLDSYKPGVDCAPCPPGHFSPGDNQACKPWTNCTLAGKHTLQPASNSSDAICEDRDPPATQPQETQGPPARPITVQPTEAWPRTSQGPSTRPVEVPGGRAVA
protocol.description: BLI, hOX40-Fc on tip, Fab 200 nM, monovalent

{"binder": "ADI-23515, Fab (Fab, V domains shown) VH: QVQLQESGPGLVKPSQTLSLTCTVSGGSIRSGAYYWSWIRQHPGKGLEWIGYIYYDGQTYYNPSLKSRVTISVDTSKNQFSLKLSSVTAADTAVYYCARDVGYPHYYGMDVWGQGTTVTVSS VL: EIVLTQSPGTLSLSPGERATLSCRASQSVSSSYLAWYQQKPGQAPRLLIYGASSRATGIPDRFSGSGSGTDFTLTISRLEPEDFAVYYCQQSERSPFTFGGGTKVEIKR", "Kd": "3.79 nM"}
{"binder": "ADI-25652, Fab (Fab, V domains shown) VH: QVQLVESGGGVVQPGRSLRLSCAASGFTFVSYNMHWVRQAPGKGLEWVAVIAYDGSVKYYADSVKGRFTISRDNSKNTLYLQMNSLRAEDTAVYYCARGRPWYSETGTSAFDIWGQGTMVTVSS VL: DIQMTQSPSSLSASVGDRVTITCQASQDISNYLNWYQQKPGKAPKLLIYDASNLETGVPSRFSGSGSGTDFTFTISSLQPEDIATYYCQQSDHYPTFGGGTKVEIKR", "Kd": "1.31 nM"}
{"binder": "ADI-25653, Fab (Fab, V domains shown) VH: QVQLVESGGGVVQPGRSLRLSCAASGFTFVSYNMHWVRQAPGKGLEWVAVIMYDGSAKYYADSVKGRFTISRDNSKNTLYLQMNSLRAEDTAVYYCARGRPWYSETGTSAFDIWGQGTMVTVSS VL: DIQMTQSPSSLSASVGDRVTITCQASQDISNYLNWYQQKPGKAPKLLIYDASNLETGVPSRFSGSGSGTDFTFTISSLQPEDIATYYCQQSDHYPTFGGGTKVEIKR", "Kd": "1.63 nM"}
{"binder": "ADI-23518, Fab (Fab, V domains shown) VH: QVQLQESGPGLVKPSQTLSLTCTVSGGSISSGASYWSWIRQHPGKGLEWIGYIYYSGETYYNPSLKSRVTISVDTSKNQFSLKLSSVTAADTAVYYCARDVGYPHYYGMDVWGQGTTVTVSS VL: EIVLTQSPGTLSLSPGERATLSCRASQSVSSSYLAWYQQKPGQAPRLLIYGASSRATGIPDRFSGSGSGTDFTLTISRLEPEDFAVYYCQQSERSPFTFGGGTKVEIKR", "Kd": "7.16 nM"}

The measurements presented in this section are drawn from patent US20200140562A1.
